- PROCEDURE_TEXT: protein stability index of a GFP-peptide fusion (GPS, HEK-293T) (PSI 1-6); higher = more stable;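 note: 24-mer peptide tiles fused after GFP, lentivirally expressed, FACS-sorted into six equal bins by GFP/DsRed ratio, decoded by Illumina sequencing, PSI is the read-weighted mean bin number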
- CONDITION_CONTEXT: treatment: DMSO; c terminus: a fixed tail appended
Lab note: anything with protein stability index at or over 3 counts as 1.0; the rest go in 0.0.

Is it the case that VNVSDRGGRTALHHAALNGHVEMV [ANKRD44] has protein stability index reaching or exceeding 3?
1.0

protein stability index >= 3 for IETSALDSTNVEEAFKNILTEIYR [RAB11B] ?
0.0

Confirm if protein stability index reported for the sequence SSPNLQVSSDGTLKYMEVTLRPTD [PCDHGC5] is 3 or above.
1.0

Item LQAELAAQEALREKAAALERQLKV [LRRC45] with protein stability index of 3 or above?
1.0

Please check the record EVPQLPPRASISHVTCVDQSEHTM [C2CD2L] and state if its protein stability index is at or above 3.
1.0

###

For each record, write down the corresponding protein stability index.
- PROCEDURE_TEXT: protein stability index of a GFP-peptide fusion (GPS, HEK-293T) (PSI 1-6); higher = more stable
- CONDITION_CONTEXT: treatment: DMSO; c terminus: a fixed tail appended
Returns: the value as a bare number; no unit string appended.

So what's the measured protein stability index for this one? GVPQIWEKIHEMVKKNSAKSMGLK [ACSBG2]
2.09

I am curious: what protein stability index value has been reported for LASLPLKADTKGFCNISLFEDLPL [PLAGL1] ?
2.33

Can you look up the measured protein stability index of FGERRIPRGRRISVICRSLPEGMG [ALKBH7] for me?
2.82

Which protein stability index value is on record for TPRRVFANAHTYHINSISVNSDYE [PPP2R2B] ?
3.35

// query protein stability index value for entry GRCLEVEMSKDANFGLRLVVQRCS [GALNT9]
2.27

May I ask what protein stability index has been recorded for DRDSIWKCLKFLGSRHPTLVLPLV [INTS4] ?
2.15

So what's the measured protein stability index for this one? QLRCEMEQQNQEYKILLDVKTRLE [KRT17]
3.63

# lookup: protein stability index of SSITRQKKRLQELALALKKCKPSL [TMEM120A]
2.39

Requested field: protein stability index. Item: CKESSPMPVICGPEENYPSLQMSS [NANOGP8]
3.65

Consider the sequence HQGIKPYKCSWCGKSFSQNTNLHT [ZNF75A] and give its measured protein stability index.
2.1

Which measured protein stability index value corresponds to EDGFGEHPFYHCLVAEVPKEHWTP [SAT1] ?
3.05

For the sequence shown here, RCNTTCGRGVKKRLVLCMELANGK [ADAMTSL2] , give the reported protein stability index.
3.22

Returns the measured protein stability index for the input sequence. Input: TEGFPPGGGNARATGMFLQYTVPG [ZFYVE21]
3.11

###

- PROCEDURE_TEXT: protein stability index of a GFP-peptide fusion (GPS, HEK-293T) (PSI 1-6); higher = more stable
- CONDITION_CONTEXT: treatment: DMSO; c terminus: a fixed tail appended
MEASURED_ENDPOINT: protein stability index
Please give only the number in your answer, with no unit.

Which value of protein stability index has been reported for SRSSLMPLRNDVDKRGETTSASLL [SLC2A12] in the records?
4.55

State the recorded protein stability index for this entry: SVNISLDNLLPGMQPSKPQQPSLN [CLINT1]
3.4

// query protein stability index value for entry NFKAHVSPHEMLQAVVLCSKKTFQ [USP39]
2.25

Item ELIDNLKEAQYIRTELVEQAFRAI [PCMTD2] has what recorded protein stability index?
2.54

Would you mind telling me what protein stability index value was observed for VSDDLSSEEDGEARTQMILLRRSV [PHTF1] ?
4.8

# lookup: protein stability index of RSVSDQFYRYKMPRLIAKVEGKGN [EIF5]
3.47

Report protein stability index for ILIREAQNQPIDKARKTYERLVAQ [CSTF3] please.
2.83

Fill in the blank: the reported protein stability index of VLKTRFSYAFPKEFPYRMNHILEC [CCNC] is ____.
2.59

Which protein stability index is reported for this sequence? EDKTFGLKNKKGAKQQKFIKAVTH [ZC3H15]
4.26

Dear colleague, I am looking for the recorded protein stability index of the following sequence: DKVLRFAQQIRLHHFNSSHLEIDD [MYORG]
2.93

Could you tell me which protein stability index is on file for VPRTLSPHQYHSVHGVGMVPEWSD [TBX5] ?
3.62

// query protein stability index value for entry KKKYMPYNHQHKYFFLIGPPALLP [FADS1]
3.14

Could you tell me which protein stability index is on file for FIYSLKQMLLNVEANSAKVQEDLE [FSD1] ?
2.55

###

- PROCEDURE_TEXT: protein stability index of a GFP-peptide fusion (GPS, HEK-293T) (PSI 1-6); higher = more stable
- CONDITION_CONTEXT: treatment: DMSO; c terminus: a fixed tail appended
Give measured protein stability index for each item. Keep answers brief.
Write the value as a bare number.

Return reported protein stability index; argument: PPPKTNLTPGQSDSAKREVKQKIS [FAN1]
5.44

Please look up its protein stability index: EDSNWEKSPDNEDSGDSKDIRLTL [GOLPH3L]
5.37

May I ask what protein stability index has been recorded for VTVLEDLEKGLEPEPQVPGPAHGP [ZNF232] ?
4.99

What value of protein stability index has been reported for the following sequence? EIFGPVTCVVPFDSEEEVIERANN [ALDH8A1]
5.18

// query protein stability index value for entry VRCEALTGELETLKERCAQDACQA [CCDC89]
4.43

For the sequence shown here, SRMKERAIDLNKKGKDNKHPMYRR [ZMYND11] , give the reported protein stability index.
4.12

Consider the sequence HSPSCLARVTGELTMTFPAGIVRV [FCHO1] and give its measured protein stability index.
2.53

Request the reported protein stability index associated with AVIAQQRRKPDPPKDENERSTCNV [DLC1]
5.24

Would you kindly share the measured protein stability index for RLHLRRTTEQHVPEVEVQVKRRRT [SNURF] ?
4.75

What protein stability index value was documented for this sequence, AAPPPLKDDPEGDRDGCVITKVLL [ZBED3] ?
3.62

What value of protein stability index has been reported for the following sequence? DSFDKFDFCEPSFVTGNCLEISPD [PCMTD2]
4.36

# get_value(readout='protein stability index', item= FSPIAIDGMSGLAGVGLSGGAAGA [ELAVL3] )
3.04

Quick one: protein stability index of RGEVLPEEITEESLEESVGKPLYL [INTS3] ?
5.17

Please give the measured protein stability index for this sequence: TNFHGVCMFCNEEFLGNRSVILNH [ZNF277]
2.08

I'd like to know its protein stability index. The sequence in question is PCAAAREGRLERRECGLAAPRFSF [IRX6]
3.01

# lookup: protein stability index of LKHQTVYRLLKCAPRGKNGFTPLH [FEM1A]
2.71

# get_value(readout='protein stability index', item= FTVGSVLGQILVSVAGWSLFSLNV [SLC19A2] )
3.28

What does the record list as protein stability index for ITESYQTLHPISSEELLSLKYEND [ETS1] ?
4.81

Fill blank: measured protein stability index of the sequence NWTVAFAPDGSYFAWSQGHRTVKL [WSB1] is ____.
2.42

Request the reported protein stability index associated with EGIRQTEYTLTGLKFDMKYMNFRV [FSD1]
2.67

// lookup protein stability index for PYSFIEFDTFIQKTKKLYIDSRAR [SEC22B]
2.38

GET /values?readout=protein stability index&item= MEEMEEELKCPVCGSFYREPIILP [TRIM9]
4.05

Fill in: protein stability index of VKKLMRTSTPPPASVINNMLAEIF [ZBED1] is ___
2.2

What value of protein stability index has been reported for the following sequence? LGGVKKSATLRSFEGLMGTIKSKV [TPD52L3]
2.64

Query (sequence): PGPASGPGPDTGPDSELSPCIPPG [SPAG8] ; field requested: protein stability index
5.4

Which protein stability index value belongs to SVAHLPWRMLTYKALNTFIDDLFA [CLPTM1] ?
2.46

State the recorded protein stability index for this entry: EQPRLEFLMRKCGWFVRELRVEFA [FBXO33]
2.64

State the recorded protein stability index for this entry: PPPSRPSVAVPPPPPNRMYPPPPP [WASL]
4.48
